- Tested on: HEK293T cells carrying the ATF4 luciferase reporter
- ASSAY PROTOCOL: ATF4-Luc assay (in vitro model of VWMD)
- Format: cell-based
- STUDY CONDITIONS: Homo sapiens, HEK-293T; HEK293T cells with ATF4 5'-UTR firefly luciferase reporter; 1 μg/mL tunicamycin; 7 hours; One Glo luminescence
Assignment: determine reported EC50 for the given compounds.

Worked cases, answers included:
INSERT INTO assay_data (compound, endpoint_result) VALUES
  ('O=C(COc1ccc(Cl)c(F)c1)N[C@H]1CC[C@H](C(=O)Nc2ccc(OCC(F)(F)F)nc2)CC1', '500 to 2000 nM'),
  ('O=C(COc1ccc(Cl)c(Cl)c1)N[C@H]1CC[C@H](C(=O)NCc2ccc(C(F)F)cn2)CC1', '10 to 50 nM'),
  ('O=C(COc1ccc(Cl)c(F)c1)N[C@H]1CC[C@H](C(=O)NCc2nc3cc(F)c(F)cc3[nH]2)CC1', '> 2000 nM');

Respectfully, I request EC50 for each entry included below.
1. O=C(COc1ccc(Cl)c(Cl)c1)N[C@H]1CC[C@H](C(=O)N(CCO)Cc2ccc(Cl)c(F)c2)CC1
2. O=C(COc1ccc(F)c(F)c1)N[C@H]1CC[C@H](C(=O)NCc2nc3cc(F)c(F)cc3[nH]2)CC1
3. O=C(COc1ccc(Cl)cc1)N[C@H]1CC[C@H](C(=O)NCc2nc3cc(F)c(F)cc3[nH]2)CC1
4. O=C(COc1ccc(Cl)c(F)c1)N[C@@H]1CC[C@@H](C(=O)NCc2nc3cc(F)c(F)cc3[nH]2)OC1
5. O=C(COc1ccc(Cl)c(F)c1)N[C@H]1CC[C@H](C(=O)Nc2ccc(OC(F)F)nc2)CC1
6. O=C(COc1ccc(Cl)c(F)c1)N[C@@H]1CC[C@@H](C(=O)N2CCC(c3ccc(Cl)cc3)C2)OC1 (some centres unmarked)

1: 500 to 2000 nM; 2: > 2000 nM; 3: 500 to 2000 nM; 4: 50 to 250 nM; 5: < 10 nM; 6: 500 to 2000 nM
